Please respond with reported protein stability index for every item in the list.
B1: ZNF8 (parent)
chain: RIHTGERPYMCKECGKAFSQNSSL

# Variants of: B1
# assay-comment: protein stability index of a GFP-peptide fusion (GPS, HEK-293T) (PSI 1-6); higher = more stable;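 further: lentivirally expressed fusions sorted by FACS into six bins by GFP to DsRed ratio, PSI derived from sequencing read proportions per bin multiplied by bin number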
# setup-conditions: c terminus: a fixed tail appended
Respond numerically, and do not add a unit to the figure.

For H3V the variant record lists protein stability index as 2.05

Lookup result for S23V ; measured protein stability index: 2.24

Entry M10Y — recorded protein stability index = 2.24

protein stability index for G5F is 2.09

Per the record, R7A has protein stability index of 2.6

// recorded protein stability index for E13V : 2.1

S23H has a reported protein stability index of 2.9

In plain terms, P8N has a documented protein stability index of 2.04

For this variant ( P8V ), measured protein stability index is 2.67

For this variant ( R7M ), measured protein stability index is 2.77

Record G5W . Reported protein stability index: 2.49

Reported protein stability index ( R7V ) = 2.37

Data point: C11S ; protein stability index = 2.99

Please fill in: protein stability index reported for K16V = 1.71

Data point: Y9E ; protein stability index = 3.27

Form field protein stability index, entry M10P : 2.62

Data point: S22T ; protein stability index = 2.34

The variant listed as I2Q shows protein stability index equal to 3.57

So, G15D ? Its protein stability index was 3.25

The recorded protein stability index for entry G5R equals 2.13

Noted for T4Q : its protein stability index reads 3.24

So for T4K , the logged protein stability index turned out to be 2.03

Noted for E6R : its protein stability index reads 1.71

Reported protein stability index ( M10Q ) = 3.16

// protein stability index lookup, variant = S23R , result: 1.66

Lab book: protein stability index of R7D noted as 3.36

Consider Q20C . Its measured protein stability index is 2.54

Reported protein stability index for Y9R was 2.02

Reported protein stability index of F18L : 2.44

Reported protein stability index of R1M : 3.04

Entry K16Q ; protein stability index = 2.27

Just so you know, measured protein stability index for R1N came out at 2.85

Per the records, this variant ( C11P ) has protein stability index equal to 2.84

Kindly note the recorded protein stability index for G15T , which is 3.05

GET /value?item= S23L &field=protein stability index returns 1.77

Value of measured protein stability index for the entry R7P : 2.44

According to the records, this variant R1K displays protein stability index of 3.01

Entry E6S ; protein stability index = 1.33

// sample G5L , its protein stability index was 2.01

# protein stability index of T4N = 2.91

Memo: K16W , reported protein stability index: 2.66

Recorded protein stability index (variant A17E ): 2.95

The recorded protein stability index for C14P is 2.99

Summary for this variant, C14F : protein stability index is 2.65

S22L yielded protein stability index of 2.05

protein stability index reading for G15C : 2.16

// protein stability index lookup, variant = K12I , result: 2.17

Sample E6M ; protein stability index observed: 2.7
